Ref: patent US5591714A

System: Staphylococcus epidermidis EPI270
procedureDetails: MIC, standard agar-dilution assay
Type: cell-based
quantityMeasured: MIC

Reference set (2 entries):
| compound | MIC |
| --- | --- |
| CN[C@H](CC(C)C)C(=O)N[C@H]1C(=O)N[C@@H](CC(N)=O)C(=O)N[C@H]2C(=O)N[C@H]3C(=O)N[C@H](C(=O)N[C@H](C(=O)O)c4cc(O)cc(O)c4-c4cc3ccc4O)[C@H](O[C@H]3C[C@](C)(N)[C@@H](O)[C@H](C)O3)c3ccc(cc3)Oc3cc2cc(c3O[C@@H]2O[C@H](CO)[C@@H](O)[C@H](O)[C@H]2O[C@H]2C[C@](C)(NCc3ccc(Br)cc3)[C@@H](O)[C@H](C)O2)Oc2ccc(cc2Cl)[C@H]1O | 1 µg/mL |
| CN[C@H](CC(C)C)C(=O)N[C@H]1C(=O)N[C@@H](CC(N)=O)C(=O)N[C@H]2C(=O)N[C@H]3C(=O)N[C@H](C(=O)N[C@H](C(=O)O)c4cc(O)cc(O)c4-c4cc3ccc4O)[C@H](O[C@H]3C[C@](C)(N)[C@@H](O)[C@H](C)O3)c3ccc(cc3)Oc3cc2cc(c3O[C@@H]2O[C@H](CO)[C@@H](O)[C@H](O)[C@H]2O[C@H]2C[C@](C)(NCc3ccccc3)[C@@H](O)[C@H](C)O2)Oc2ccc(cc2Cl)[C@H]1O | .25 µg/mL |

Here is another compound to look at.
For CNC(CC(C)C)C(=O)NC1C(=O)NC(CC(N)=O)C(=O)NC2C(=O)NC3C(=O)NC(C(=O)NC(C(=O)O)c4cc(O)cc(O)c4-c4cc3ccc4O)C(OC3CC(C)(N)C(O)C(C)O3)c3ccc(c(Cl)c3)Oc3cc2cc(c3OC2OC(CO)C(O)C(O)C2OC2CC(C)(NCc3cccc(Cl)c3)C(O)C(C)O2)Oc2ccc(cc2Cl)C1O (stereo not drawn) the compound record lists MIC as .25 µg/mL
